- system.under.test: UniProtKB Q9NY46
- Sequence (Q9NY46 whole entry): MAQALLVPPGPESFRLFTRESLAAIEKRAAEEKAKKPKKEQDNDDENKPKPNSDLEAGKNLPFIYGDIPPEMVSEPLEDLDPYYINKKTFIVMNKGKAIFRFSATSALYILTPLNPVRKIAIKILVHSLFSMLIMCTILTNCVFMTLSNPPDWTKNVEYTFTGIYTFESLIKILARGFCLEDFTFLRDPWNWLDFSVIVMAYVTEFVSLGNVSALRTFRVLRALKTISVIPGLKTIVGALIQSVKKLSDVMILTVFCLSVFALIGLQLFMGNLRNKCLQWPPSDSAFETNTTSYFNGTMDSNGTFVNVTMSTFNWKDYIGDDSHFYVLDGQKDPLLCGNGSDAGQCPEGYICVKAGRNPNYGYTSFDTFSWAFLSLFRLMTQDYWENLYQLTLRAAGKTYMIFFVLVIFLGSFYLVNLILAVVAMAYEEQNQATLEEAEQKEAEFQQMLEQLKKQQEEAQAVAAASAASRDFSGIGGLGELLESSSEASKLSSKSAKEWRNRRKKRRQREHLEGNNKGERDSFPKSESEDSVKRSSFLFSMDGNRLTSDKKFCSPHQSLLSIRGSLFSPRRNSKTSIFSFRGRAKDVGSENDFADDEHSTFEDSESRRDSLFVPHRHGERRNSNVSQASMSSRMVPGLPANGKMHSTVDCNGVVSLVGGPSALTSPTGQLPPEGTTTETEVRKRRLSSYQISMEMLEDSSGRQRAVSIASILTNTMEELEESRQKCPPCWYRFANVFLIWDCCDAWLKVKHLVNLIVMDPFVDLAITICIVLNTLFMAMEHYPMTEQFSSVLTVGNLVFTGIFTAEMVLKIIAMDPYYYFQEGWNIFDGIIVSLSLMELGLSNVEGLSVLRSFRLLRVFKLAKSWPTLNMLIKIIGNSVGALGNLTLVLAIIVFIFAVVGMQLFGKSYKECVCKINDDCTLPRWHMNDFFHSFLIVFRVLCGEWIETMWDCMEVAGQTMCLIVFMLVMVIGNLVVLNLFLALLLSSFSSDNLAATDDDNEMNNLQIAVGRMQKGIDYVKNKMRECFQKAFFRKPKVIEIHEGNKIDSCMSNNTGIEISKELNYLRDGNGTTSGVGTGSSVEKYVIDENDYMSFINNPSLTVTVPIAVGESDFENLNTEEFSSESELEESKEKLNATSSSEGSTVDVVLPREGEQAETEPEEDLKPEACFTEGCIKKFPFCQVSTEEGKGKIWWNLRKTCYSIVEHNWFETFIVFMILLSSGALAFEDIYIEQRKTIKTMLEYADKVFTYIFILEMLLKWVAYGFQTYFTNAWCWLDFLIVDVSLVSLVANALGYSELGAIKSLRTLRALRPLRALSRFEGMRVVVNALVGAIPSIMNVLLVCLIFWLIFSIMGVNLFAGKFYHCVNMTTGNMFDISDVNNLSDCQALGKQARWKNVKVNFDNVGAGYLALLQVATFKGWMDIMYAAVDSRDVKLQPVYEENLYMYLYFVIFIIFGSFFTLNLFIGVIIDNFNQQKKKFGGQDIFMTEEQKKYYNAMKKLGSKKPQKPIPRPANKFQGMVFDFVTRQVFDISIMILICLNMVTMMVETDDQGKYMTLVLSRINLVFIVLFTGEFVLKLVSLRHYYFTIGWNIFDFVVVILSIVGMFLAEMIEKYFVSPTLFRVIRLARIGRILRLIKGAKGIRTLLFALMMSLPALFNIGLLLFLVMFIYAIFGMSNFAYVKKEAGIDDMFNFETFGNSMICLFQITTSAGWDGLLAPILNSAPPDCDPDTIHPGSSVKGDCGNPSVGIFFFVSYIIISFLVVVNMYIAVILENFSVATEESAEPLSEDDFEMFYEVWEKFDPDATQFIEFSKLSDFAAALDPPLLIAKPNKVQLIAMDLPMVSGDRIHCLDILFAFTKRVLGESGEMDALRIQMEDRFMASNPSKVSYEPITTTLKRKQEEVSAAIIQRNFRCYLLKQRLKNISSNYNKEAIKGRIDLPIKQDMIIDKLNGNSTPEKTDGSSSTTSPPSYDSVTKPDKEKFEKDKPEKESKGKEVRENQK
- assay.name: FRET assay, human Nav1.3 channels expressed in HEK293 cells
- measurement.conditions: HEK293 cells expressing human NaV1.3, veratridine-opened channels
IC50 for assorted compounds

Recorded IC50, per entry:
smiles.record	system.under.test	value.measured
O=C(NCCO)c1ncccc1OC[C@H]1CCCN1C(=O)c1cccc(C(F)(F)F)c1	UniProtKB Q9NY46	≤ 500 nM
CC(C)(C)c1cc(C(=O)N2CCC[C@@H]2COc2cccnc2C(N)=O)no1	UniProtKB Q9NY46	≤ 500 nM
COC(=O)CNC(=O)c1ncccc1OC[C@H]1CCCN1C(=O)[C@H]1CC[C@H](C(F)(F)F)CC1	UniProtKB Q9NY46	≤ 500 nM

IN: Return IC50 for the following compound: COCCNC(=O)c1ncccc1OC[C@H]1CCCN1C(=O)[C@H]1CC[C@H](C(F)(F)F)CC1
OUT: ≤ 500 nM

IN: Return IC50 for the following compound: O=C(NCCN1CCOCC1)c1ncccc1OC[C@H]1CCCN1C(=O)c1cccc(C(F)(F)F)c1
OUT: ≤ 500 nM
